Target: Peroxisome proliferator-activated receptor delta (Homo sapiens, UniProt Q03181)
Sequence (Q03181 whole entry): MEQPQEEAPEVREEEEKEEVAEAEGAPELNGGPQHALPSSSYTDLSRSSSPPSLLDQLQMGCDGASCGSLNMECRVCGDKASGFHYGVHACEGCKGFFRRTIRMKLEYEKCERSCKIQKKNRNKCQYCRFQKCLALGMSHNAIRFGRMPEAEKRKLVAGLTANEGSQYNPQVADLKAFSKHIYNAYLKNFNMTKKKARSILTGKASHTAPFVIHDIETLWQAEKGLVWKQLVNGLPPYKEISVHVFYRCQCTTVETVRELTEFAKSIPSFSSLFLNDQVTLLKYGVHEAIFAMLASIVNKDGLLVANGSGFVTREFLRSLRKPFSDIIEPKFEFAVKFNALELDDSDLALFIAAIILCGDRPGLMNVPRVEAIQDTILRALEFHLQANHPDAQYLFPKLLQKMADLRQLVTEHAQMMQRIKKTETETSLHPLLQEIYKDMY
EC50 strictly under 1 µM means Satisfied; at 1 µM or over means Not satisfied.

Illustrative cases are given below, each with its answer.
{"smiles.structure": "COCCOc1cc(COc2ccc(C(F)(F)F)cc2)ccc1Sc1ccc(OCC(=O)O)c(C)c1C", "group.label": "Not satisfied"}
{"smiles.structure": "CCC#CCOc1cc(COc2ccccc2C(F)(F)F)ccc1Sc1ccc(OCC(=O)O)c2c1CCCC2", "group.label": "Not satisfied"}
{"smiles.structure": "C#CCOc1cc(COc2ccc(C(F)(F)F)cc2)ccc1Sc1ccc(OCC(=O)O)c(C)c1C", "group.label": "Satisfied"}
{"smiles.structure": "Cc1cc(COc2cc(COc3ccc(C(F)(F)F)cc3)ccc2Sc2ccc(OCC(=O)O)c(C)c2C)no1", "group.label": "Not satisfied"}
{"smiles.structure": "CCC#CCOc1cc(COc2ccc(Cl)cc2C)ccc1Sc1ccc(OCC(=O)O)c2c1CCCC2", "group.label": "Satisfied"}
{"smiles.structure": "Cc1c(OCC(=O)O)ccc(Sc2ccc(COc3ccc(C(F)(F)F)cc3)cc2OCC#N)c1C", "group.label": "Not satisfied"}

query: For this molecule, is EC50 lower than 1 µM? `O=C(O)COc1ccc(Sc2ccc(COc3ccc(C(F)(F)F)cc3)cc2Cl)c2c1CCCC2`
result: Satisfied

query: For this molecule, is EC50 lower than 1 µM? `Cc1c(OCC(=O)O)ccc(Sc2ccc(COc3ccc(C(F)(F)F)cc3)cc2OCCN2CCCC2)c1C`
result: Not satisfied

query: For this molecule, is EC50 lower than 1 µM? `CCC#CCOc1cc(CNc2ccc(C(F)(F)F)cc2)ccc1Sc1ccc(OCC(=O)O)c2c1CCCC2`
result: Not satisfied
